For each of the compounds below, state its Population Mitotic Cells (%).
Tested on: Fibroblast
assay.explanation: Multiplex assay against human fibroblast
Type: toxicity, cell-based
conditions: 48 h, 10 µM, compound concentration 10 uM, replicate 1
One number for each entry, in %.

Worked examples, 2 compounds total:
O=C(Cc1ccc(-c2ccc(OCCN3CCOCC3)cc2)cn1)NCc1ccccc1
51
CCn1c(=O)c(-c2ccc(-c3cncs3)cc2Cl)cc2cnc(Nc3ccc(N4CCN(C)CC4)cc3)nc21
7

# per-item lookup of Population Mitotic Cells (%); items listed below
1. C=C1/C(=C\C=C2/CCC[C@]3(C)[C@@H]([C@H](C)/C=C/[C@H](C)C(C)C)CC[C@@H]23)C[C@@H](O)C[C@@H]1O
2. CCOC(=O)c1c(C)[nH]c2ccc3c(c12)CN1CCc2cc(OC)ccc2C1O3 (centres undefined)

Solution:
1: 13; 2: 10

---

Tested on: Fibroblast
assay.explanation: Multiplex assay against human fibroblast
Format: toxicity, cell-based
conditions: 24 h, 10 µM, compound concentration 10 uM, replicate 2
For each of the molecules below, state its Population Membrane Permeable-Phenotype (%).
Numbers only, in %.

COC(=N)c1nc2ccc3ncnc(Nc4ccc(OC)cc4F)c3c2s1
10
COc1cc(N2CCN(C)CC2)ccc1Nc1ncc2c(n1)N(C)c1ccccc1C(=O)N2C
30
Cn1nc(C(=O)NCc2ccc(C(=O)O)cc2)cc1-c1ccc2[nH]ccc2c1
15
COc1ccc(-c2ccc3c(N4CCOCC4)nc(N4C[C@@H](C)O[C@@H](C)C4)nc3n2)cc1CO
28

Now take the following molecule into account.
Form: molecule = `O=C(Nc1ccc(Cl)cc1)Nc1cccc(-c2cccc(N3CCCC3)n2)c1` ; Population Membrane Permeable-Phenotype (%) = 46

---

System: HEK-293T
assay.explanation: Multiplex assay against HEK293T
Format: toxicity, cell-based
conditions: human, 24 h, 10 µM, compound concentration 10 uM, replicate 2
value.kind: Total Cell Count
One number for each entry.

CCOc1cc2ncc(C#N)c(Nc3ccc(OCc4ccccn4)c(Cl)c3)c2cc1NC(=O)/C=C/CN(C)C
857

# per-item lookup of Total Cell Count; items listed below
1. CCOC(=O)c1c(C)[nH]c2ccc3c(c12)CN1CCc2cc(OC)ccc2C1O3 (stereo not given)
2. Cl.O=c1c2cccn2c2ccccc2n1CCCN1CCC(c2ccc(Cl)cc2)CC1
3. CCc1cccc(CC)c1NC(=O)c1nn(C)c2c1CCc1cnc(Nc3ccc(C(=O)NC4CCN(C)CC4)cc3OC(F)(F)F)nc1-2
4. CCN1CCN(c2ccc(Nc3cc(N(C)C(=O)Nc4c(Cl)c(OC)cc(OC)c4Cl)ncn3)cc2)CC1
5. CCCS(=O)(=O)Nc1ccc(F)c(C(=O)c2c[nH]c3ncc(Cl)cc23)c1F

Solution:
1. 158
2. 206
3. 158
4. 3002
5. 3379

---

Test system: Fibroblast
assay.explanation: Multiplex assay against human fibroblast
Type: toxicity, cell-based
conditions: 48 h, 10 µM, compound concentration 10 uM, replicate 2
Label not met if Population Hoechst High Intensity Objects (%) falls below 30%; label met in every other case.

Solved entries:
CN(C)C(=O)C(CCN1CCC(O)(c2ccc(Cl)cc2)CC1)(c1ccccc1)c1ccccc1.Cl [LOPERAMIDE HYDROCHLORIDE]
met
CNc1cc(Oc2cc(C(=O)Nc3cc(N4CCN(C)CC4)cc(C(F)(F)F)c3)ccc2C)ncn1
met
CCCS(=O)(=O)c1nc(NC2CC2)cc(-c2ccc3c(ccn3C3CC(C)(C)NC(C)(C)C3)c2)n1
met
CN1CCN(C(=O)C(C)(C)c2ccc(C(=O)Nc3cn4cc(-c5ccncc5)ccc4n3)cc2)CC1
not met

Problem: Tell me whether Population Hoechst High Intensity Objects (%) is at least 30% here: `O=C(Nc1ccc(-n2nc(-c3cccnc3)cc2C(F)(F)F)cn1)c1ccc(-c2ccccc2)c(F)c1`
Solution: not met

Problem: Tell me whether Population Hoechst High Intensity Objects (%) is at least 30% here: `Cl.O=c1c2cccn2c2ccccc2n1CCCN1CCC(c2ccc(Cl)cc2)CC1`
Solution: met

Problem: Tell me whether Population Hoechst High Intensity Objects (%) is at least 30% here: `O=C1NC(=O)C(c2cnc3ccccn23)=C1c1cn2c3c(cc(F)cc13)CN(C(=O)N1CCCCC1)CC2`
Solution: not met

Problem: Tell me whether Population Hoechst High Intensity Objects (%) is at least 30% here: `CCc1cccc(CC)c1NC(=O)c1nn(C)c2c1CCc1cnc(Nc3ccc(C(=O)NC4CCN(C)CC4)cc3OC(F)(F)F)nc1-2`
Solution: not met
